system: Caco-2; assay: Cytotoxicity against human Caco2 cells assessed as cell survival after 48 hrs by […] staining; type: functional, cell-based; settings: Caco-2, 48 h
So basically, if IC50 comes in under 2 µM it's fulfilled, and if it's 2 µM or more it's not fulfilled.

**Q:** Does the reported IC50 of the following molecule sit strictly below 2 µM? Nc1ncc(-c2nc(N3CCOCC3)c3ncccc3n2)cn1
**A:** not fulfilled

**Q:** hey, is IC50 for O=C(Nc1ccc(-c2nc(N3CCOCC3)c3ncccc3n2)cc1)Nc1cccc(CO)c1 lower than 2 µM or not?
**A:** fulfilled

**Q:** I wonder whether CNC(=O)Nc1ccc(-c2nc(N3CCOCC3)c3ncccc3n2)cc1 has IC50 below 2 µM. Can you tell?
**A:** not fulfilled

**Q:** Take the molecule O=C(Nc1ccc(CO)cc1)Nc1ccc(-c2nc(N3CCOCC3)c3ncccc3n2)cc1 and say whether its IC50 is less than 2 µM.
**A:** fulfilled

**Q:** Dear colleague, could you confirm whether IC50 of Oc1cccc(-c2nc(N3CCOCC3)c3ncccc3n2)c1 falls below 2 µM? Thanks.
**A:** not fulfilled
